Catalogue of Ki values
- SYSTEM_NAME: human M4 receptor (Homo sapiens, UniProt P08173)
- Construct: expressed in transfected cells; host or cells: CHO cells
- Sequence (P08173 whole entry): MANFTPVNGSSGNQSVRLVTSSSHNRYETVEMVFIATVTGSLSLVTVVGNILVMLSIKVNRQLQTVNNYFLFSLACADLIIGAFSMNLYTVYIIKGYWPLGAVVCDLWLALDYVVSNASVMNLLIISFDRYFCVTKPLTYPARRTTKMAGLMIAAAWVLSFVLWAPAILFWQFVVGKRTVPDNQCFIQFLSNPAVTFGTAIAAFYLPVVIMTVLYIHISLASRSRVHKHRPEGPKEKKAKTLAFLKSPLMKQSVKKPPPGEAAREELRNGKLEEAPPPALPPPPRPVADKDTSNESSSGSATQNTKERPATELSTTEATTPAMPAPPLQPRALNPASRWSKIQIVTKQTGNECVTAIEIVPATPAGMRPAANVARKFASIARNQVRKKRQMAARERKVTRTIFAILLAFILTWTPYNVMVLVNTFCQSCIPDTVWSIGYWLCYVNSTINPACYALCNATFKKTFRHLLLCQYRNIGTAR
- TEST_SUMMARY: Radioligand ([3H]N-methylscopolamine) binding assay, membranes from CHO cells expressing human M4 receptor
- CONDITION_INFO: Ki against human M4 receptor; membranes from CHO cells; tritiated N-methylscopolamine 1.5 nM; read-out: K

Consider the worked cases shown below.
MOLECULE	MEASUREMENT_TYPE	RECORDED_VALUE
C[C@@H]1CN(c2cnc(C(F)(F)F)cn2)[C@@H](C)CN1C(=O)OC1CC2(C1)CN(Cc1ccc(F)cc1)C2 [Compound 400]	Ki	0.01 to 0.1 µM
C[C@@H]1CN(c2ncc(C(F)(F)F)cn2)C[C@@H](C)N1C(=O)OC1CC2(C1)CN(CC(C)(C)C)C2 [Compound 146]	Ki	0.1 to 1 µM
C[C@@H]1CN(c2cnc(C(F)(F)F)cn2)C[C@H](C)N1C(=O)OC1(C)CC2(CN(Cc3ccccc3)C2)C1 [Compound 353]	Ki	0.01 to 0.1 µM
C[C@@H]1CN(c2cncc(C(F)(F)F)n2)C[C@@H](C)N1C(=O)OC1CC2(C1)CN(Cc1ccccc1)C2 [Compound 166]	Ki	0.1 to 1 µM

Ki reading for C[C@@H]1CN(c2nc3cc(F)ccc3s2)[C@@H](C)CN1C(=O)OC1CC2(C1)CN(Cc1ccccc1)C2 [Compound 440] : < 0.01 µM

Ki reading for C[C@@H]1CN(c2ccc(OC(F)(F)F)c(C#N)c2)CCN1C(=O)NC1CC2(C1)CN(Cc1ccccc1)C2 [Compound 13] : < 0.01 µM

Ki reading for C#Cc1cnc(N2C[C@@H](C)N(C(=O)OC3CC4(C3)CN(Cc3ccccc3)C4)[C@@H](C)C2)nc1 [Compound 508] : 0.01 to 0.1 µM
